Biological target: PI3Kδ (p110δ/p85α) (Homo sapiens (Human), UniProt O00329)
Sequence (O00329 whole entry): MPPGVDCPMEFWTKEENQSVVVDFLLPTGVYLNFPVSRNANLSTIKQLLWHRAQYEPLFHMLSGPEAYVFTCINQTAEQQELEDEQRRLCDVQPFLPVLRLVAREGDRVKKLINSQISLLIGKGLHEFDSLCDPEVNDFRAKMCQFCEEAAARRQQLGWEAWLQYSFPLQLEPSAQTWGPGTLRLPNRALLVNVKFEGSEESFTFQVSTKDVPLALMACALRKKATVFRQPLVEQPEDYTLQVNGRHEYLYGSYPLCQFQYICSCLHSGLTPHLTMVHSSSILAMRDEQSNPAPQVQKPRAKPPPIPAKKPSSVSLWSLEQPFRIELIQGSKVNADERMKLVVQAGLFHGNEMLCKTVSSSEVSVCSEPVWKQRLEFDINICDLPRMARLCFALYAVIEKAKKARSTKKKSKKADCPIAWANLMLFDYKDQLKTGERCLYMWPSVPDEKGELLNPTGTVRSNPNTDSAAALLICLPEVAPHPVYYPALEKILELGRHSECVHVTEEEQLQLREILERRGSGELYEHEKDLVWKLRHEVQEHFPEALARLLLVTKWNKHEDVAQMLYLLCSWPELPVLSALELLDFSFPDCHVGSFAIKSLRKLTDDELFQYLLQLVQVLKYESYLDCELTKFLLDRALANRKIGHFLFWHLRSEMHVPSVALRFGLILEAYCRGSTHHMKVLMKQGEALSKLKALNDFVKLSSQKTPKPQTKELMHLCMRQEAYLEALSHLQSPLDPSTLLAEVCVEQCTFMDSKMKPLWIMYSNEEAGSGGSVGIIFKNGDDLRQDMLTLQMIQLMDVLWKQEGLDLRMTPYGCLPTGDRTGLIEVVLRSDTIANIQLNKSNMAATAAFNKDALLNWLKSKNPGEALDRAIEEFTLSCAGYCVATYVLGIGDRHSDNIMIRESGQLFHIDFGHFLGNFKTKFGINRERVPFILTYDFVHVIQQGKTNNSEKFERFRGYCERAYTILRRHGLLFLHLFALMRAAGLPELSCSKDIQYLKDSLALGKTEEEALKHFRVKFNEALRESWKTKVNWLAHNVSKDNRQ
Sequence (P27986 whole entry partner): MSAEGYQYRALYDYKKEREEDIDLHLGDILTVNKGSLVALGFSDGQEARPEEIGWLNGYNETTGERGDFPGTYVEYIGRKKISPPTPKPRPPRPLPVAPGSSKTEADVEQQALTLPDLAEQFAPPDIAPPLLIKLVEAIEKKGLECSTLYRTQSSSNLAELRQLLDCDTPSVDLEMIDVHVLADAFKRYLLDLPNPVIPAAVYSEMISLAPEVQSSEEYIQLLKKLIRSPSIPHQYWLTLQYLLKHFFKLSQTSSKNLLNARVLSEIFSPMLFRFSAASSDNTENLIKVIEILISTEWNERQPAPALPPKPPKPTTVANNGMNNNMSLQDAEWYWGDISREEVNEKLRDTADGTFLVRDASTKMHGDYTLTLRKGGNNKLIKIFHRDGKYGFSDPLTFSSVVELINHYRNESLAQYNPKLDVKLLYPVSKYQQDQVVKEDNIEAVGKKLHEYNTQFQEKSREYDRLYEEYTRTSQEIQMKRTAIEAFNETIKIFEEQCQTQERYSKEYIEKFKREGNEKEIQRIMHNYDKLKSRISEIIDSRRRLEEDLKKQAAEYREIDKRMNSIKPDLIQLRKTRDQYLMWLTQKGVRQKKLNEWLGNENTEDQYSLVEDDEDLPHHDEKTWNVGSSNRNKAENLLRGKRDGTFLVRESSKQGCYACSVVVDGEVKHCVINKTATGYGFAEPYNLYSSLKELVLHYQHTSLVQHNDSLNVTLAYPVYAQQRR
Test: PI3Kδ scintillation proximity assay
Conditions: 20 μM ATP
pIC50: −log10 of the molar value.
METRIC_NAME: pIC50

COc1c(C(C)n2nc(C)c3c(N)ncnc32)cc(Cl)c(C#N)c1C1CN(C[C@H](C)O)C1 (stereo partly drawn)    > 7.30
CCOc1c(C(C)n2nc(C)c3c(N)ncnc32)cc(C)c(C#N)c1-c1ccc(C(=O)N(C)C)nc1 (stereo not drawn)    > 7.30

Please examine the following record next.
Ask | // fetch pIC50 given entry COc1c(C(C)n2nc(C)c3c(N)ncnc32)cc(Cl)c(C#N)c1C1CN(CCO)C1 (stereo not drawn)
Reply | > 7.30
